The measured values listed here are drawn from patent US20240018102A1.

Measured pIC50 values are reported for all entries that follow.
- TESTED ON: human LPA1 (Homo sapiens)
- Construct: expressed in transfected cells; host or cells: CHO-K1
- PROCEDURE SUMMARY: In vitro LPA1 functional antagonist assay (calcium mobilization, FLIPR)
- Type: cell-based
- EXPERIMENTAL CONTEXT: CHO-K1 cells overexpressing human LPA1; Oleoyl LPA challenge; calcium mobilization on FLIPR Tetra
In plain terms, pIC50 is the concentration in mol/L turned into minus its base-10 logarithm.

Recorded pIC50, per entry:
MOLECULE	TESTED ON	pIC50
COc1cc([C@H](O)[C@H](Cn2cc3cccc(C(=O)O)c3n2)OCCc2ccccc2)cc(OC)c1C [Compound 105b]	human LPA1 (Homo sapiens)	7.31
COc1cc([C@@H](O)[C@H](Cn2cc3cc(Cl)cc(C(=O)O)c3n2)OC2CCCC2)cc(OC)c1C	human LPA1 (Homo sapiens)	8.69
COc1cc([C@@H](O)[C@H](Cc2nc(CC(=O)O)cs2)OC2CCCC2)cc(OC)c1C [Compound 112a]	human LPA1 (Homo sapiens)	7.25
COc1cc([C@@H](O)[C@H](Cn2cc3cccc(C(=O)O)c3n2)OC2CCCC2)ccc1C(F)F [Compound 121a]	human LPA1 (Homo sapiens)	7.95

molecule COc1cc([C@@H](O)[C@H](Cc2ccc(CC(=O)O)c(OC)n2)OC2CCCC2)cc(OC)c1C [Compound 110a] , pIC50 observed: 5.78

molecule COC(=O)c1cn(C[C@H](OC2CCCC2)[C@H](O)c2cc(OC)c(C)c(OC)c2)cc1CC(=O)O [Compound 102a] , pIC50 observed: 7.84

molecule CC#CCCO[C@@H](Cn1cc(CC(=O)O)c(C(=O)OC)c1)[C@H](O)c1cc(OC)c(C)c(OC)c1 [Compound 101a] , pIC50 observed: 6.67

###

- TESTED ON: human LPA1 (Homo sapiens)
- Construct: expressed in transfected cells; host or cells: CHO-K1
- PROCEDURE SUMMARY: In vitro LPA1 functional antagonist assay (calcium mobilization, FLIPR)
- Type: cell-based
- EXPERIMENTAL CONTEXT: CHO-K1 cells overexpressing human LPA1; Oleoyl LPA challenge; calcium mobilization on FLIPR Tetra
Measured pIC50 values are reported for all entries that follow.
In plain terms, pIC50 is the concentration in mol/L turned into minus its base-10 logarithm.

COMPOUND	pIC50
CCOC(=O)c1cn(C[C@H](OC2CCCC2)[C@H](O)c2cc(OC)c(C)c(OC)c2)cc1CC(=O)O	8.12

Let us move to another entry and its pIC50.
compound COC(=O)c1cn(C[C@H](OCCc2ccccc2)[C@H](O)c2cc(OC)c(C)c(OC)c2)cc1CC(=O)O [Compound 104a] , pIC50 observed: 8.28

###

- TESTED ON: human LPA1 (Homo sapiens, UniProt Q92633)
- Construct: expressed in transfected cells; host or cells: CHO-K1
- Sequence (Q92633 whole entry): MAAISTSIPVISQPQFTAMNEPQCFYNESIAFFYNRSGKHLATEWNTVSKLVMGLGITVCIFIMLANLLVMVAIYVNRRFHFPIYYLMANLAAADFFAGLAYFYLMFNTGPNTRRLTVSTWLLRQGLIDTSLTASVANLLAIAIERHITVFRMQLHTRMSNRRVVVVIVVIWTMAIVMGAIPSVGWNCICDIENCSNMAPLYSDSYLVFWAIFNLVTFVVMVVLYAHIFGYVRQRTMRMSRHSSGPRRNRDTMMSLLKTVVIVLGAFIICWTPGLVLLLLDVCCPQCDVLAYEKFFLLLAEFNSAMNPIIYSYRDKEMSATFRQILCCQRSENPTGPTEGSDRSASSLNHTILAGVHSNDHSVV
- PROCEDURE SUMMARY: In vitro LPA1 calcium flux antagonist assay, Bioduro protocol
- Type: cell-based
- EXPERIMENTAL CONTEXT: CHO-K1 cells overexpressing human LPA1 and G15a; LPA challenge at EC80; calcium mobilization on FLIPR Tetra; read-out: IC50 (nM) in Assay B2
MEASUREMENT KIND: IC50
Please don't drop the unit; write it after the number.

Recorded IC50, per entry:
SMILES TEXT	TESTED ON	IC50
CCOc1cc([C@@H](O)[C@H](Cc2nc3c(C(=O)O)cccc3s2)OCC(C)C)ccc1C(C)=O	human LPA1 (Homo sapiens, UniProt Q92633)	449 nM
COc1cc([C@@H](O)[C@H](Cc2nc3c(C(=O)O)cc(OC)c(F)c3s2)OC2CCCC2)cc(OC)c1C	human LPA1 (Homo sapiens, UniProt Q92633)	2.71 nM

Let us move to another entry and its IC50.
compound COc1cc([C@@H](O)[C@H](Cn2cc3cc(F)cc(C(=O)O)c3n2)OC2CCCC2)cc(OC)c1C , IC50 observed: 8.64 nM
